Biological target: SARS-CoV-2 3CL protease (Severe acute respiratory syndrome coronavirus 2, UniProt P0DTD1)
Assay: Inhibitory activity test against SARS-CoV-2 3CL proteases
Assay type: biochemical
Conditions: IC50 (50% SARS-CoV-2 3CL protease inhibitory concentration)
pIC50: −log10 of the molar value.

Molecule	pIC50
COc1nc(C2=CC3CCC(C2)N3)cc2c1c(=O)n(-c1cncc(Cl)c1)c(=O)n2Cc1cc(F)c(F)c(F)c1 (stereo not shown)	7.96
COc1nc(N2[C@@H]3CC[C@H]2CNC3)cc2c1c(=O)n(-c1cnc3ccccn13)c(=O)n2Cc1cc(F)c(F)c(F)c1	> 7.00
COc1nc(N2[C@@H]3CC[C@H]2CNC3)cc2c1c(=O)n(-c1cnc3cc(F)ccn13)c(=O)n2Cc1cc(F)c(F)c(F)c1	> 7.00
COc1nc(NC2CCCC2)cc2c1c(=O)n(-c1cnc3cc(F)ccn13)c(=O)n2-c1ccc(F)c(Cl)c1	> 7.00
COc1nc(N2CC(F)(F)C2)cc2c1c(=O)n(-c1cnc3cc(F)ccn13)c(=O)n2-c1ccc(F)c(Cl)c1	> 7.00
COc1nc(N2[C@@H]3COC[C@H]2C3)cc2c1c(=O)n(-c1cnc3cc(F)ccn13)c(=O)n2-c1ccc(F)c(Cl)c1	8.25
COc1nc(N2[C@@H]3CC[C@H]2CNC3)cc2c1c(=O)n(-c1cc(C)cnn1)c(=O)n2Cc1cc(F)c(F)c(F)c1	8.29
O=c1[nH]cccc1Cn1c(=O)c2ccc(N3[C@@H]4CC[C@H]3CNC4)cc2n(Cc2cc(F)c(F)c(F)c2)c1=O	> 7.00
COc1nc(N2[C@@H]3CC[C@H]2CNC3)cc2c1c(=O)n(-c1cncc(Cl)c1)c(=O)n2Cc1cc(F)c(F)c(F)c1	8.47
COc1nc(N2[C@@H]3CC[C@H]2CNC3)cc2c1c(=O)n(-c1cnc3cc(F)c(Cl)cn13)c(=O)n2-c1ccc(F)c(Cl)c1	> 7.00
COc1nc(N2[C@@H]3CC[C@H]2COC3)cc2c1c(=O)n(-c1cnc3cc(F)ccn13)c(=O)n2-c1ccc(F)c(Cl)c1	> 7.00
COc1nc(N2[C@@H]3CCC[C@H]2CNC3)cc2c1c(=O)n(-c1cnc3ccccn13)c(=O)n2Cc1cc(F)c(F)c(Cl)c1	> 7.00
COc1nc(N2C3CCC(O)C2CC3)cc2c1c(=O)n(Cc1ncn(C)n1)c(=O)n2Cc1cc(F)c(F)c(F)c1 (stereo not shown)	> 7.00
